System: Mus musculus
Protocol notes: Anticonvulsive activity in pentylenetetrazole-induced seizure albino mouse model assessed as duration time of convulsion period at 100 mg/kg, ig administered 30 mins prior to pentylenetetrazole challenge and mesured for 60 mins (reference value: 12 +/- 1.34 min)
Type: functional
Would you mind sorting the entries by Time according to these classes? group 1 = under 3 min, group 2 = from 3 min up to 10 min, group 3 = 10 min and over

Smiles code | Tested system | Qualitative label
O=C(Cn1c(=O)[nH]c2ccccc2c1=O)NC1CCCCC1 | Mus musculus | group 3
O=C(Cn1c(=O)[nH]c2ccccc2c1=O)NCc1ccccc1 | Mus musculus | group 3
COc1ccccc1CNC(=O)Cn1c(=O)[nH]c2ccccc2c1=O | Mus musculus | group 2

Task item: Please let me know in which category the item O=C(Cn1c(=O)[nH]c2ccccc2c1=O)NCc1ccc(Cl)cc1 belongs.
Reply: group 2

Task item: Please let me know in which category the item O=C(Cn1c(=O)[nH]c2ccccc2c1=O)NCc1ccc(Cl)cc1Cl belongs.
Reply: group 1

Task item: Please let me know in which category the item O=C(Cn1c(=O)[nH]c2ccccc2c1=O)Nc1ccccc1 belongs.
Reply: group 1

Task item: Please let me know in which category the item CCCNC(=O)Cn1c(=O)[nH]c2ccccc2c1=O belongs.
Reply: group 1

====

Activity reference
Protocol notes: Toxicity in albino mouse assessed as motor coordination impairment by measuring animal fall-off from rod before 3 mins at 100 mg/kg, ig administered 30 mins prior to test by rotarod test (reference value: 33%)
Format: organism-based
Details: in vivo, po, 0.05 h
All answers are understood in %, so give the number only.

The cases that follow already have their Activity on record.
Smiles code | Observed property | Observed measurement
O=C(Cn1c(=O)[nH]c2ccccc2c1=O)NCc1ccc(Cl)cc1Cl | Activity | 50
C=CCNC(=O)Cn1c(=O)[nH]c2ccccc2c1=O | Activity | 50
O=C(Cn1c(=O)[nH]c2ccccc2c1=O)Nc1ccccc1 | Activity | 50
CCCNC(=O)Cn1c(=O)[nH]c2ccccc2c1=O | Activity | 50
O=C(Cn1c(=O)[nH]c2ccccc2c1=O)NCc1ccc(Cl)cc1 | Activity | 67

Attention now shifts to the item below.
Task item: I am curious: what Activity value has been reported for O=C(Cn1c(=O)[nH]c2ccccc2c1=O)NCCCc1ccccc1 ?
Reply: 50

====

Protocol notes: Toxicity in albino mouse assessed as motor coordination impairment by measuring animal fall-off from rod before 5 mins at 100 mg/kg, ig administered 30 mins prior to test by rotarod test (reference value: 50%)
Format: organism-based
Details: in vivo, po
Observed property: Activity (%)
All answers are understood in %, so give the number only.

Smiles code | Observed measurement
O=C(Cn1c(=O)[nH]c2ccccc2c1=O)NCCCc1ccccc1 | 50
O=C(Cn1c(=O)[nH]c2ccccc2c1=O)NCc1ccc(Cl)cc1Cl | 67
O=C(Cn1c(=O)[nH]c2ccccc2c1=O)NC1CCCCC1 | 50
O=C(Cn1c(=O)[nH]c2ccccc2c1=O)NCc1ccccc1 | 50
O=C(Cn1c(=O)[nH]c2ccccc2c1=O)NCc1ccc(Cl)cc1 | 83
O=C(Cn1c(=O)[nH]c2ccccc2c1=O)Nc1ccccc1 | 67
C=CCNC(=O)Cn1c(=O)[nH]c2ccccc2c1=O | 67
COc1ccccc1CNC(=O)Cn1c(=O)[nH]c2ccccc2c1=O | 83

Task item: I am curious: what Activity value has been reported for CCCNC(=O)Cn1c(=O)[nH]c2ccccc2c1=O ?
Reply: 50

Task item: I am curious: what Activity value has been reported for O=C(Cn1c(=O)[nH]c2ccccc2c1=O)NCCc1ccccc1 ?
Reply: 67

====

Test system: Mus musculus
Protocol notes: Anticonvulsive activity in pentylenetetrazole-induced seizure albino mouse model assessed as number of clonic and tonic convulsion at 100 mg/kg, ig administered 30 mins prior to pentylenetetrazole challenge and mesured per animal for 60 mins (reference value: 3.58 +/- 0.42)
Type: functional
Observed property: Activity
Lab note: jot the number down without any unit.

Smiles code | Tested system | Activity
COc1ccccc1CNC(=O)Cn1c(=O)[nH]c2ccccc2c1=O | Mus musculus | 2.4
C=CCNC(=O)Cn1c(=O)[nH]c2ccccc2c1=O | Mus musculus | 2.2
O=C(Cn1c(=O)[nH]c2ccccc2c1=O)NCCCc1ccccc1 | Mus musculus | 1.2
O=C(Cn1c(=O)[nH]c2ccccc2c1=O)NCc1ccc(Cl)cc1 | Mus musculus | 2
O=C(Cn1c(=O)[nH]c2ccccc2c1=O)NCCc1ccccc1 | Mus musculus | 1.8

Attention now shifts to the item below.
Task item: I am curious: what Activity value has been reported for O=C(Cn1c(=O)[nH]c2ccccc2c1=O)NCc1ccccc1 ?
Reply: 3

====

Protocol notes: Toxicity in albino mouse assessed as motor coordination impairment by measuring animal fall-off from rod before 3 mins at 100 mg/kg, ig administered 30 mins prior to test by rotarod test (reference value: 33%)
Assay type: organism-based
Details: in vivo, po, 0.05 h
Observed property: Activity (%)
All answers are understood in %, so give the number only.

The cases that follow already have their Activity on record.
Smiles code | Observed measurement
O=C(Cn1c(=O)[nH]c2ccccc2c1=O)NCCc1ccccc1 | 50
COc1ccccc1CNC(=O)Cn1c(=O)[nH]c2ccccc2c1=O | 67
O=C(Cn1c(=O)[nH]c2ccccc2c1=O)NC1CCCCC1 | 50

Task item: I am curious: what Activity value has been reported for O=C(Cn1c(=O)[nH]c2ccccc2c1=O)NCc1ccccc1 ?
Reply: 50

====

System: Mus musculus
Protocol notes: Anticonvulsive activity in pentylenetetrazole-induced seizure albino mouse model assessed as proportion of animals with clonic convulsion at 100 mg/kg, ig administered 30 mins prior to pentylenetetrazole challenge and mesured for 60 mins (reference value: 100 %)
Type: functional
Activity reference
All answers are understood in %, so give the number only.

Smiles code | Activity (%)
O=C(Cn1c(=O)[nH]c2ccccc2c1=O)Nc1ccccc1 | 100

Task item: I am curious: what Activity value has been reported for O=C(Cn1c(=O)[nH]c2ccccc2c1=O)NCc1ccccc1 ?
Reply: 100

Task item: I am curious: what Activity value has been reported for O=C(Cn1c(=O)[nH]c2ccccc2c1=O)NC1CCCCC1 ?
Reply: 100

Task item: I am curious: what Activity value has been reported for C=CCNC(=O)Cn1c(=O)[nH]c2ccccc2c1=O ?
Reply: 100

Task item: I am curious: what Activity value has been reported for O=C(Cn1c(=O)[nH]c2ccccc2c1=O)NCc1ccc(Cl)cc1 ?
Reply: 100

Task item: I am curious: what Activity value has been reported for COc1ccccc1CNC(=O)Cn1c(=O)[nH]c2ccccc2c1=O ?
Reply: 80

====

Activity reference
Protocol notes: Toxicity in albino mouse assessed as motor coordination impairment by measuring animal fall-off from rod before 1 min at 100 mg/kg, ig administered 30 mins prior to test by rotarod test (reference value: 17%)
Type: organism-based
Details: in vivo, po
All answers are understood in %, so give the number only.

Task item: I am curious: what Activity value has been reported for O=C(Cn1c(=O)[nH]c2ccccc2c1=O)Nc1ccccc1 ?
Reply: 17

Task item: I am curious: what Activity value has been reported for O=C(Cn1c(=O)[nH]c2ccccc2c1=O)NCc1ccc(Cl)cc1Cl ?
Reply: 17

====

Time reference
Test system: Mus musculus
Protocol notes: Anticonvulsive activity in pentylenetetrazole-induced seizure albino mouse model assessed as duration time of convulsion period at 100 mg/kg, ig administered 30 mins prior to pentylenetetrazole challenge and mesured for 60 mins (reference value: 12 +/- 1.34 min)
Format: functional
All answers are understood in min, so give the number only.

Smiles code | Time / min
O=C(Cn1c(=O)[nH]c2ccccc2c1=O)NCCCc1ccccc1 | 3.05

Task item: I am curious: what Time value has been reported for C=CCNC(=O)Cn1c(=O)[nH]c2ccccc2c1=O ?
Reply: 9.8

Task item: I am curious: what Time value has been reported for O=C(Cn1c(=O)[nH]c2ccccc2c1=O)NCCc1ccccc1 ?
Reply: 9.98

====

Tested on: Mus musculus
Protocol notes: Anticonvulsive activity in pentylenetetrazole-induced seizure albino mouse model assessed as number of clonic and tonic convulsion at 100 mg/kg, ig administered 30 mins prior to pentylenetetrazole challenge and mesured per animal for 60 mins (reference value: 3.58 +/- 0.42)
Type: functional
Activity reference

Smiles code | Observed measurement
O=C(Cn1c(=O)[nH]c2ccccc2c1=O)Nc1ccccc1 | 1.22

Task item: I am curious: what Activity value has been reported for O=C(Cn1c(=O)[nH]c2ccccc2c1=O)NC1CCCCC1 ?
Reply: 3.2

Task item: I am curious: what Activity value has been reported for CCCNC(=O)Cn1c(=O)[nH]c2ccccc2c1=O ?
Reply: 1.4

Task item: I am curious: what Activity value has been reported for O=C(Cn1c(=O)[nH]c2ccccc2c1=O)NCc1ccc(Cl)cc1Cl ?
Reply: 1

====

Activity reference
System: Mus musculus
Protocol notes: Anticonvulsive activity in pentylenetetrazole-induced seizure albino mouse model assessed as proportion of animals with clonic convulsion at 100 mg/kg, ig administered 30 mins prior to pentylenetetrazole challenge and mesured for 60 mins (reference value: 100 %)
Type: functional
All answers are understood in %, so give the number only.

The cases that follow already have their Activity on record.
Smiles code | Unit name | Activity
O=C(Cn1c(=O)[nH]c2ccccc2c1=O)NCCc1ccccc1 | % | 100
O=C(Cn1c(=O)[nH]c2ccccc2c1=O)NCc1ccc(Cl)cc1Cl | % | 80
O=C(Cn1c(=O)[nH]c2ccccc2c1=O)NCCCc1ccccc1 | % | 80

Attention now shifts to the item below.
Task item: Form entry - test system: Mus musculus; read-out: Activity; compound: CCCNC(=O)Cn1c(=O)[nH]c2ccccc2c1=O
Reply: 100
